# Test system: HeLa
# Assay remarks: Cytotoxicity against human HeLa cells by MTT assay
# Format: functional, cell-based
Readout kind: IC50 (nM)
Could you give me the number in nM? Just the number is fine.

Qu. What value of IC50 has been reported for the following compound? CC(=O)O[C@H]1CC[C@]2(C)[C@H]3CC=C4[C@@H]5[C@@H](C)[C@H](C)CC[C@]5(C(=O)NCCCN5CCOCC5)CC[C@@]4(C)[C@]3(C)CC[C@H]2C1(C)C
Ans. 2710
